Task for the reader: assign each of the following compounds its reported TGI.
Test system: SN12C renal
Test: NCI tumour cell line growth inhibition, 48 h

Below, each entry is followed by its recorded TGI result.
| compound | TGI |
| --- | --- |
| CCOc1ccc2nc(SCc3nc4n(n3)S(=O)(=O)c3ccccc3N4C)sc2c1 | > 100 µM |
| NC(CCCC(N)P(=O)(O)c1ccccc1)P(=O)(O)c1ccccc1 (stereo not given) | > 261 µM |

Provide reported TGI for each item, in the same order as listed.
1. CCOC(=O)C1(C/C=C(/C)Cl)CCCC1=O (stereo not given)
2. CC(C)(C)C(=O)c1c(C(F)(F)F)n([O-])c2ccccc2[n+]1=O
3. COc1ccc2c(CCN)c(C(=O)O)[nH]c2c1
4. COC(=O)/C=C\n1c(C)cc(=O)[nH]c1=O
5. N/C(=N\S(=O)(=O)c1ccc(S(=O)(=O)c2ccccc2)s1)Nc1ccc(Cl)cc1
6. CC1(C)N=C(C(N)=O)c2ncn(N)c2N1

1: > 100 µM; 2: 2.32 µM; 3: > 100 µM; 4: > 100 µM; 5: 36.3 µM; 6: > 100 µM

Provide reported TGI for each item, in the same order as listed.
1. N#CC1=C(N)n2c(s/c(=C\c3ccc(Cl)cc3)c2=O)=C(c2nc3ccccc3[nH]2)C1c1ccc(Cl)cc1 (stereo not given)
2. COc1ccc2c(c1)C(=O)c1c-2n(CCCN=[N+]=[N-])c(=O)c2cc(OC)c(OC)cc12

1: 4.6 µM; 2: > 100 µM
